Overview of reported TGI across a group of compounds:
Test system: COLO 205 colon
Test description: NCI tumour cell line growth inhibition, 48 h

Examples with answers:
- Compound: "CC(=O)N1C(Nc2nccs2)CCN1c1ccccc1 (stereo not drawn)"
  TGI: "> 10 µM"
- Compound: "Cc1c(-c2ccccc2)[nH]c2cn[nH]c(=O)c12"
  TGI: "> 100 µM"
- Compound: "CCOc1nc2c(N3CCCC3)nc(N3CCNCC3)nc2nc1NCc1ccccc1"
  TGI: "1.93 µM"
- Compound: "CC(C)[Si]1(C(C)C)OCC2OC(n3ccc(=O)[nH]c3=O)C([Se]c3ccccc3)C2O[Si](C(C)C)(C(C)C)O1 (stereo not drawn)"
  TGI: "16.6 µM"
- Compound: "CC1=CCC(C(C)(C)NC(=O)c2ccccc2)C/C1=N/O (stereo not drawn)"
  TGI: "> 100 µM"

Task: Field request: TGI | item: O=c1[nH]cnc2n[nH]nc12
Result: > 100 µM

Task: Need TGI, item COc1ccc(/C=N/NS(=O)(=O)c2ccccc2)cc1
Result: > 100 µM

Task: Which value of TGI has been reported for C=CCN1CCC(c2cc(C(=O)OCC)[nH]c2-c2cc(C)no2)C1=O (stereo not drawn) in the records?
Result: > 100 µM

Task: For O=C1NC(N/N=C\c2ccccc2)=N/C1=C/c1ccccc1 , what is its reported TGI?
Result: > 100 µM

Task: // TGI lookup, key: COC(=O)/C=C\C(C#N)(C#N)N=Cc1ccc(OC)cc1
Result: 3.47 µM

Task: Entry C1CCCN(NC2=NCCO2)CC1 has what TGI?
Result: > 100 µM

Task: // query TGI value for entry COc1ccc(C2Cc3cc(OC)c(OC)c(OC)c3C2)cc1 (stereo not drawn)
Result: > 100 µM

Task: Consider the compound shown here: CCOC(=O)C1=C(OC(OCC)C(CC)[Se]c2ccccc2)CCC1 (stereo not drawn) What is its recorded TGI?
Result: > 100 µM

Task: Given the entry O=[N+]([O-])/C(Cl)=C(/C(Cl)=C(Cl)Cl)N1CCOCC1 , report its measured TGI.
Result: 5.45 µM

Task: GET /values?readout=TGI&item= CC(C)(C)O/N=C/c1cc(NC(=S)c2ccsc2)ccc1Cl
Result: 28.3 µM

Task: TGI for O=C1OC([C@H](O)c2cccnc2)c2ccccc21 (stereo partly drawn) ?
Result: > 10 µM

Task: So what does the record say about TGI for NC(=O)[N+](=CC(=S)Nc1ccccc1Cl)C(N)=O ?
Result: > 100 µM

Task: Query: TGI; subject: CCN(c1ccccc1)[C@H]1C(=O)N(c2ccc([N+](=O)[O-])cc2)[C@H]1c1ccc(OC)cc1
Result: > 100 µM

Task: Tell me the measured TGI of COc1ccc(C2=Nn3c(nnc3-n3nc(C)cc3C)SC2)cc1 , please.
Result: 0.218 µM

Task: Entry CCOC(=O)/C(=C\c1ccc2ccccc2c1)P(=O)(OCC)OCC has what TGI?
Result: 4.89 µM

Task: What does the data say about its TGI? Entry: Cc1ccc(-c2cc(-c3ccc(Cl)cc3)nc(/N=C3\C(=O)N(CN(C)C)c4ccccc43)n2)cc1
Result: > 100 µM

Task: Could you share which TGI value was measured for Cc1ccc(C(=O)Oc2ccccc2)cc1N=NN(C)C ?
Result: > 100 µM

Task: Query (compound): Cc1cc(-c2nc3c(F)cccc3s2)ccc1N ; field requested: TGI
Result: > 100 µM
